System: SK-MEL-5 melanoma
Experiment: NCI tumour cell line growth inhibition, 48 h
Listed here: items and their measured TGI.

- COMPOUND: "O=C1/C(=C/c2ccc(Cl)c(Cl)c2)CNC/C1=C\\c1ccc(Cl)c(Cl)c1"
  SIGN_QUALIFIER: ">"
  TGI / µM: 70.4
- COMPOUND: "CCn1c(=O)c2c3ccc(OC)cc3[nH]c2c2ccc(OC)cc21"
  SIGN_QUALIFIER: ">"
  TGI / µM: 100
- COMPOUND: "CCOC(OCC)C(CC)[Se]c1ccccc1 (stereo unspecified)"
  SIGN_QUALIFIER: ">"
  TGI / µM: 100
- COMPOUND: "O=C(c1ccco1)c1nc2cc(C(F)(F)F)ccc2[n+]([O-])c1C(F)(F)F"
  SIGN_QUALIFIER: ">"
  TGI / µM: 100
- COMPOUND: "COc1ccc(C2=C(Cl)c3cc(OC)c(OC)cc3C2)cc1OC"
  SIGN_QUALIFIER: ">"
  TGI / µM: 100
- COMPOUND: "Cc1c2cccc-2c(OCCOC(=O)n2ccnc2)cc2c1[nH]c1ccccc12"
  SIGN_QUALIFIER: "="
  TGI / µM: 5.68
- COMPOUND: "CN(C)c1ccc2cc3ccc(N(C)C)cc3nc2c1"
  SIGN_QUALIFIER: "="
  TGI / µM: 8.34
- COMPOUND: "CCCCCCCCCCCC1=NC(C)(C)CN1CC(C)O (stereo unspecified)"
  SIGN_QUALIFIER: "="
  TGI / µM: 18.1
- COMPOUND: "Cc1ccc2nc3c(n2c1)C(=O)C(=O)c1ccccc1-3"
  SIGN_QUALIFIER: "="
  TGI / µM: 0.244
- COMPOUND: "CCCC(C)c1c(Cl)nc(Cl)nc1Cl (stereo unspecified)"
  SIGN_QUALIFIER: "="
  TGI / µM: 13.9
- COMPOUND: "O=c1[nH]nc(Cc2ccc(Cl)cc2)n1/N=C/c1c[nH]c2ccccc12"
  SIGN_QUALIFIER: ">"
  TGI / µM: 100

// provenance: PubChem BioAssay (NCI)
